studyTarget: Cytochrome P450 3A4 (Homo sapiens)
methodNotes: Cytochrome panel assay with activity outcomes; also: % is scaled to controls: 0 for no effect and ±100 for the full control effect
runConditions: recombinant CYP, pro-luciferin dealkylation, luminescence, p450-cyp3a4; series mostly up to 57.1 µM
In all, about 16,000 compounds went through this assay and about 5,100 (32%) were called active. Not shown: some 25% with an inconclusive outcome. This is one part of the list.
measureName: activity, negative = inhibition

| structureNotation | studyTarget | measurement |
| --- | --- | --- |
| O=C(O)C[C@@H](C(=O)O)C1c2ccccc2-c2ccccc21 | Cytochrome P450 3A4 (Homo sapiens) | -5.49% [at 11.4 µM] (inactive) |

Fill in activity, negative = inhibition for each of the 3 compounds listed.
1. CC(C)(C)c1ccc(C(=O)N2CCC(C(=O)NCCC3=CCCCC3)CC2)cc1
2. CCN1C(=O)[C@H]2[C@H]3[C@H](O)[C@H](O)C/C(=N/O[C@@H](C)c4cn([C@H]5COC[C@H]5O)nn4)[C@@H]3CC[C@@H]2C1=O
3. COc1ccc2nc3cc(Cl)ccc3c(Nc3ccc(O)c(CN4CCN(C)CC4)c3)c2c1

A)
-5.78% [at 2.29 µM] (inactive)
-18.4% [at 11.4 µM] (inactive)
2.77% [at 11.4 µM] (inactive)
